The measurements presented in this section are drawn from patent US7772271B2.

The compounds listed here are annotated with their melting point.

[[record]]
smiles_text = "CCCS(=O)(=O)Nc1ccc(-c2c(C#N)c3ccc(Oc4nccnc4C#N)cc3n2C2CCC2)cc1C"
quantity_measured = "melting point"
result = "215 to 217 °C"

[[record]]
smiles_text = "CC(C)CS(=O)(=O)Nc1ccc(-c2c(C#N)c3ccc(Oc4nccnc4C#N)cc3n2CC2CC2)cc1"
quantity_measured = "melting point"
result = "194 to 197 °C"

[[record]]
smiles_text = "CC(C)OC(=O)Nc1c(F)cc(-c2c(C#N)c3ccc(OCCF)cc3n2C2CCC2)cc1F"
quantity_measured = "melting point"
result = "150 to 155 °C"


Could you please provide reported melting point for "N#Cc1c(-c2ccc(N3CCCCS3(=O)=O)cc2)n(C2CCC2)c2cc(OC3CCOCC3)ccc12" ? Thanks! 180 to 187 °C

Could you please provide reported melting point for "C[C@H](OC(=O)Nc1ccc(-c2c(C#N)c3cc(OCCCn4cncn4)ccc3n2C2CCC2)cc1)c1ccccc1" ? Thanks! 206 to 208 °C

Could you please provide reported melting point for "CCCS(=O)(=O)Nc1ccc(-c2c(C#N)c3ccc(Oc4ncccc4C(F)(F)F)cc3n2C2CCC2)cc1" ? Thanks! 181 to 184 °C

Could you please provide reported melting point for "CCS(=O)(=O)Nc1ccc(-c2c(C#N)c3ccc(OC4CCOCC4)cc3n2C2CCC2)cc1" ? Thanks! 207 to 209 °C

----------
The compounds listed here are annotated with their melting point.

Some solved entries appear below for comparison.
[[record]]
compound = "C[C@@H](OC(=O)Nc1ccc(-c2c(C#N)c3ccc(C(=O)N(C)C)cc3n2C2CCC2)cc1)C1CC1"
quantity_measured = "melting point"
result = "118 to 120 °C"

[[record]]
compound = "C[C@@H](OC(=O)Nc1ccc(-c2c(C#N)c3cc(N4CCOCC4)ccc3n2C2CCC2)cc1)C(F)(F)F"
quantity_measured = "melting point"
result = "197 to 202 °C"

[[record]]
compound = "CCOC(CCOc1ccc2c(C#N)c(-c3ccc(NC(=O)OC(C)C)cc3)n(C3CCC3)c2c1)OCC"
quantity_measured = "melting point"
result = "146 to 150 °C"

[[record]]
compound = "CCCS(=O)(=O)Nc1ccc(-c2c(C#N)c3ccc(Oc4ncccc4C#N)cc3n2C2CC2)c(C)c1"
quantity_measured = "melting point"
result = "222 to 226 °C"

[[record]]
compound = "CCCS(=O)(=O)Nc1ccc(-c2c(C#N)c3ccc(Oc4ncccc4Cl)cc3n2C2CC2)cc1"
quantity_measured = "melting point"
result = "215 to 217 °C"

[[record]]
compound = "CC(C)OC(=O)Nc1ccc(-c2c(C#N)c3ccc(OCCC4COC(C)(C)O4)cc3n2C2CCC2)cc1 (stereo not shown)"
quantity_measured = "melting point"
result = "141 to 145 °C"


Could you please provide reported melting point for "CCOc1ccc2c(C#N)c(-c3ccc(NC(=O)OCCS(C)(=O)=O)cc3)n(C3CCC3)c2c1" ? Thanks! 194 to 195 °C

----------
QUANTITY MEASURED: melting point

Some solved entries appear below for comparison.
[[record]]
compound = "CCN(CC)C(=O)c1ccc(-c2c(C#N)c3ccc(OCCOC)cc3n2C2CCC2)cc1"
result = "136 to 138 °C"

[[record]]
compound = "CCCS(=O)(=O)Nc1ccc(-c2c(C#N)c3ccc(Oc4nccnc4C#N)cc3n2CC2CC2)c(C)c1"
result = "238 to 241 °C"

[[record]]
compound = "N#Cc1c(-c2ccc(NC(=O)NC3CCC3)cc2)n(CC2CC2)c2cc(N3CCOCC3)ccc12"
result = "170 to 230 °C"


Could you please provide reported melting point for "CCCN(CCC)C(=O)c1ccc2c(C#N)c(-c3ccc(NC(=O)O[C@H](C)C4CC4)cc3)n(C3CCC3)c2c1" ? Thanks! 160 to 163 °C

Could you please provide reported melting point for "CCN(CC)C(=O)c1ccc2c(c1)c(C#N)c(-c1ccc(NC(=O)OC(C)C)cc1)n2C1CCC1" ? Thanks! 225 to 226 °C

Could you please provide reported melting point for "C[C@@H](OC(=O)Nc1ccc(-c2c(C#N)c3ccc(OC4CCOCC4)cc3n2C2CC2)cc1)C1CC1" ? Thanks! 149 to 151 °C

Could you please provide reported melting point for "CC(C)OC(=O)Nc1ccc(-c2c(C#N)c3ccc(N4CCCCC4)cc3n2C2CCC2)cc1" ? Thanks! 208 to 213 °C

Could you please provide reported melting point for "N#Cc1c(-c2ccc(Nc3nc(C(F)(F)F)cs3)cc2)n(C2CCC2)c2cc(OC3CCOCC3)ccc12" ? Thanks! 250 to 252 °C

Could you please provide reported melting point for "CCn1c(-c2ccc(N3CCCS3(=O)=O)cc2)c(C#N)c2ccc(OCCOC)cc21" ? Thanks! 213 to 215 °C

Could you please provide reported melting point for "C[C@@H](OC(=O)Nc1ccc(-c2c(C#N)c3cc(N4CCOCC4)ccc3n2C2CCC2)cc1)c1ccc(F)cc1" ? Thanks! 163 to 168 °C

Could you please provide reported melting point for "CCOc1ccc2c(Br)c(-c3ccc(NC(=O)OC(C)C)cc3)n(CC3CC3)c2c1" ? Thanks! 128 to 132 °C

Could you please provide reported melting point for "CS(=O)(=O)COc1ccc2c(C#N)c(-c3ccc(NS(=O)(=O)C4CCC4)cc3)n(C3CCC3)c2c1" ? Thanks! 231 to 237 °C

Could you please provide reported melting point for "COc1ccc2c(F)c(-c3ccc(NC(=O)NC(C)C)cc3)n(CC3CC3)c2c1" ? Thanks! 217 to 221 °C

Could you please provide reported melting point for "C[C@@H](OC(=O)Nc1ccc(-c2c(C#N)c3ccc(Oc4ncccn4)cc3n2C2CCC2)cc1)C(F)(F)F" ? Thanks! 205 to 207 °C

Could you please provide reported melting point for CCCS(=O)(=O)Nc1ccc(-c2c(C#N)c3ccc(N4CCOCC4)cc3n2C2CCC2)cc1 [Compound 2803] ? Thanks! 203 to 204 °C

----------
The compounds listed here are annotated with their melting point.

[[record]]
compound = "CC(C)Nc1ccc(-c2c(C#N)c3ccc(O[C@@H]4CCOC4)cc3n2C2CC2)cc1"
quantity_measured = "melting point"
result = "185 to 187 °C"

[[record]]
compound = "CCS(=O)(=O)Nc1ccc(-c2c(C#N)c3ccc(OC4CCOCC4)cc3n2C2CC2)cc1"
quantity_measured = "melting point"
result = "212 to 214 °C"

[[record]]
compound = "Cc1cc(Cl)ccc1Nc1ccc(-c2c(C#N)c3ccc(OC4CCOCC4)cc3n2C2CCC2)cc1"
quantity_measured = "melting point"
result = "174 to 179 °C"

[[record]]
compound = "COCCOc1ccc2c(C#N)c(-c3ccc(NC(=O)OC(C)C)cc3)n(C(C)C)c2c1"
quantity_measured = "melting point"
result = "153 to 155 °C"


Could you please provide reported melting point for CC(C)OC(=O)Nc1ccc(-c2c(C#N)c3ccc(OCC(O)CN4CCOCC4)cc3n2C2CCC2)cc1 (stereo not drawn) ? Thanks! 183 to 185 °C

Could you please provide reported melting point for "N#Cc1c(-c2ccc(Nc3cccnc3)cc2)n(C2CCC2)c2cc(OC3CCOCC3)ccc12" ? Thanks! 210 to 212 °C

----------
The compounds listed here are annotated with their melting point.

[[record]]
compound = "C[C@@H](OC(=O)Nc1ccc(-c2c(C#N)c3ccc(OCCN4CCCC4=O)cc3n2C2CCC2)cc1)C1CC1"
result = "159 to 162 °C"

[[record]]
compound = "CC(OC(=O)Nc1ccc(-c2c(C#N)c3ccc(Oc4ncccn4)cc3n2C2CCC2)cc1)C(F)(F)F (stereo not drawn)"
result = "211 to 213 °C"


Could you please provide reported melting point for "CCn1c(-c2ccc(NC(=O)N3CCCCC3)cc2)c(C#N)c2ccc(OCCOC)cc21" ? Thanks! 216 to 218 °C

----------
The compounds listed here are annotated with their melting point.

Some solved entries appear below for comparison.
[[record]]
smiles_text = "CCCS(=O)(=O)Nc1ccc(-c2c(C#N)c3ccc(Oc4nccc(C)n4)cc3n2CC2CC2)cc1"
quantity_measured = "melting point"
result = "181 to 183 °C"

[[record]]
smiles_text = "Cc1cc(-c2c(C#N)c3ccc(Oc4nccnc4C#N)cc3n2C2CCC2)ccc1NS(=O)(=O)CC(C)C"
quantity_measured = "melting point"
result = "177 to 178 °C"

[[record]]
smiles_text = "C[C@@H](OC(=O)Nc1ccc(-c2c(C#N)c3ccc(N4CCOCC4)cc3n2C2CCC2)cc1)c1ccc(F)cc1"
quantity_measured = "melting point"
result = "163 to 165 °C"

[[record]]
smiles_text = "CCOc1ccc2c(C#N)c(-c3ccc(NC(=O)OC4CCN(S(=O)(=O)C5CC5)CC4)cc3)n(C3CCC3)c2c1"
quantity_measured = "melting point"
result = "236 to 241 °C"

[[record]]
smiles_text = "C[C@@H](OC(=O)Nc1c(F)cc(-c2c(C#N)c3ccc(OCCF)cc3n2C2CCC2)cc1F)C1CC1"
quantity_measured = "melting point"
result = "176 to 180 °C"

[[record]]
smiles_text = "C[C@@H](OC(=O)Nc1ccc(-c2c(C#N)c3ccc(-c4ncccc4C(F)(F)F)cc3n2C2CCC2)cc1)C1CC1"
quantity_measured = "melting point"
result = "90 to 98 °C"


Then this compound:
Could you please provide reported melting point for "C[C@@H](OC(=O)Nc1ccc(-c2c(C#N)c3ccc(-c4ccccn4)cc3n2C2CCC2)cc1)C(F)(F)F" ? Thanks! 220 to 222 °C
